Origin of measurements: patent US20240384350A1

# System name: EGFR L833V (Homo sapiens, UniProt P00533, L833V)
# Construct: expressed in transfected cells; host or cells: Ba/F3 cells, retroviral pBabe-Puro vector
# Assay comment: Ba/F3 drug screening, Cell Titer Glo, IC50 Mut/WT
# Assay type: cell-based
# Experimental setup: Classical-Like, 72 hours
Endpoint label: ratio of IC50 for cells with mutant EGFR to IC50 for cells with wildtype EGFR (Mut/WT)
Enter a number only.

-- ask Sample "C=CC(=O)Nc1cccc(Oc2nc(Nc3ccc(N4CCN(C)CC4)cc3)nc3ccsc23)c1" — what was its ratio of IC50 for cells with mutant EGFR to IC50 for cells with wildtype EGFR (Mut/WT)?
-- reply 0.03803

-- ask Would you mind telling me what ratio of IC50 for cells with mutant EGFR to IC50 for cells with wildtype EGFR (Mut/WT) value was observed for "COc1cc2ncnc(Nc3ccc(F)c(Cl)c3)c2cc1NC(=O)/C=C/CN1CCCCC1" ?
-- reply 0.06272

-- ask Can you share its ratio of IC50 for cells with mutant EGFR to IC50 for cells with wildtype EGFR (Mut/WT)? I mean this compound: "C=CC(=O)Nc1cc(Nc2ncc(C(=O)OC(C)C)c(-c3cn(C)c4ccccc34)n2)c(OC)cc1N(C)CCN(C)C"
-- reply 0.1367

-- ask Given the compound "C=CC(=O)N1CC[C@@H](Oc2nc(Nc3ccc(N4CCC(N5CCN(C)CC5)CC4)cc3)c(C(N)=O)nc2CC)C1" , what is its reported ratio of IC50 for cells with mutant EGFR to IC50 for cells with wildtype EGFR (Mut/WT)?
-- reply 0.02478

-- ask Please look up its ratio of IC50 for cells with mutant EGFR to IC50 for cells with wildtype EGFR (Mut/WT): "CNC(=O)CN1CCC(Oc2cc3c(Nc4cccc(Cl)c4F)ncnc3cc2OC)CC1"
-- reply 0.008594

-- ask What value of ratio of IC50 for cells with mutant EGFR to IC50 for cells with wildtype EGFR (Mut/WT) has been reported for the following compound? "CN(C)C/C=C/C(=O)Nc1cc2c(Nc3ccc(Cl)c(Br)c3)ncnc2cn1"
-- reply 0.003152

-- ask Looking for the measured ratio of IC50 for cells with mutant EGFR to IC50 for cells with wildtype EGFR (Mut/WT) of "C=CC(=O)N[C@H]1C=C(C)c2c(-c3cnc4ccccc4c3)c3c(N)ncnc3n2C1" , can you help?
-- reply 0.03111

-- ask Recorded ratio of IC50 for cells with mutant EGFR to IC50 for cells with wildtype EGFR (Mut/WT) of "C=CC(=O)Nc1cc(Nc2nccc(-c3c[nH]c4ccccc34)n2)c(OC)cc1N(C)CCN(C)C" , please.
-- reply 0.4446

-- ask What does the record list as ratio of IC50 for cells with mutant EGFR to IC50 for cells with wildtype EGFR (Mut/WT) for "Cc1cc(C(=O)Nc2nc3cccc(Cl)c3n2[C@@H]2CCCCN(C(=O)/C=C/CN(C)C)C2)ccn1" ?
-- reply 0.002739

-- ask So what's the measured ratio of IC50 for cells with mutant EGFR to IC50 for cells with wildtype EGFR (Mut/WT) for this one? "COc1cc2ncnc(Nc3cccc(Cl)c3F)c2cc1OC(=O)N1CCN(C)C[C@H]1C"
-- reply 0.1488

-- ask // returns reported ratio of IC50 for cells with mutant EGFR to IC50 for cells with wildtype EGFR (Mut/WT) for input "C=CC(=O)Nc1cc(Nc2nccc(-n3cc(CN(C)C)c(-c4ccccc4)n3)n2)c(OC)cc1N1CCOCC1"
-- reply 0.006132
